- Tested on: RAW-Dual (murine macrophage reporter line)
- assay text: IRF reporter (Lucia luciferase) activity fold change vs agonist alone; higher = enhanced IRF activity
- condition set: modulator concentration 10 µM; agonist: MPLA […]
attribute measured: IRF reporter
Just the number.

Guide cases for IRF reporter, answers given:
compound	val
O=C(COc1ccccc1)N1CCCC1Cn1nccn1 (stereo not drawn)	1.06
CCn1c(=O)c2c(nc(/C=C/c3ccc(OC)c(OC)c3)n2C)n(CC)c1=O	1.32
CCOc1ccc2nc(NC(=O)c3ccc(Br)cc3F)sc2c1	0.946
O=C(c1cc2ccccc2o1)N1CC(N2C(=O)CNC2=O)C1	1.33
CC(C)c1nc(CN(C)C(=O)N[C@@H](CCN2CCOCC2)C(=O)N[C@H](CC[C@H](Cc2ccccc2)NC(=O)OCc2cncs2)Cc2ccccc2)cs1	0.839

Could you share which IRF reporter value was measured for Cl.OC(CCCN1CCCCC1)(c1ccccc1)c1ccccc1 ?
1.08

Item O=C(CCn1c(=O)oc2ccccc21)Nc1ccccc1 has what recorded IRF reporter?
1.06

Requested read-out: IRF reporter. Entry: COc1c(C)c2c(c(O)c1CC=C(C)CCC(=O)O)C(=O)OC2
1.55

IRF reporter lookup needed for Cc1cc(C)n(N=Cc2c[nH]c3ccccc23)c(=O)c1C#N , thanks.
1.6

GET /values?readout=IRF reporter&item= COc1cc(C=Nc2ccc3oc(-c4ccc(C(C)(C)C)cc4)nc3c2)ccc1OC(=O)c1ccc(Cl)cc1Cl
1.14

Quick check: IRF reporter of CCN(CC)c1ccc(C=NN2C(=O)c3ccccc3C2=O)cc1 ?
1.11

Consider the compound shown here: Cc1ccc(-n2nc(C(C)(C)C)cc2NC(=O)Nc2ccc(OCCN3CCOCC3)c3ccccc23)cc1 What is its recorded IRF reporter?
0.844

I am curious: what IRF reporter value has been reported for CCc1nc(N)nc(N)c1-c1ccc(Cl)cc1 ?
0.865

Endpoint output: IRF reporter of CN[C@H]1CC[C@@H](c2ccc(Cl)c(Cl)c2)c2ccccc21.Cl . Value?
1.97

Fill in the blank: the reported IRF reporter of Oc1c2c(nc3cc(-c4ccc(Br)cc4)nn13)CCS2 is ____.
0.921

Can you share its IRF reporter? I mean this compound: O=C(Nc1cc(C(F)(F)F)cc(C(F)(F)F)c1)c1cc(Br)ccc1Cl
1.05

Please look up its IRF reporter: CCOC(=O)N1CCC(=C2c3ccc(Cl)cc3CCc3cccnc32)CC1
1.33

May I ask what IRF reporter has been recorded for CC(C)(C)c1ccc(C(=O)CCCN2CCC(OC(c3ccccc3)c3ccccc3)CC2)cc1 ?
1.21

Look up IRF reporter for this compound: CC[C@@H]([C@H](C)O)n1ncn(-c2ccc(N3CCN(c4ccc(OC[C@@H]5CO[C@@](Cn6cncn6)(c6ccc(F)cc6F)C5)cc4)CC3)cc2)c1=O
1.36

GET /values?readout=IRF reporter&item= CC(C)(C)C1CCc2c(sc(NC(=O)c3ccc(F)cc3)c2C(N)=O)C1 (stereo not drawn)
1.24

Using the record for COc1cccc(S(=O)(=O)N2CCCC(c3nnc(C(F)(F)F)o3)C2)c1 (stereo not drawn) , report its IRF reporter.
1.3

The measurements presented in this section are drawn from the supplement of paper PMC10646978.
